This collection of values is drawn from ChEMBL document CHEMBL3867430.

- protocol.summary: Selectivity index, ratio of IC50 for HAF cells to IC50 for human ES2 cells
- Format: functional
Catalogue of Ratio IC50 readings, one per entry.

Example entries and their recorded answers appear below.
| compound | Ratio IC50 |
| --- | --- |
| C=C(C)C1CC[C@H]2[C@@H]3CC[C@H]([C@H](C)CCC(=O)N4CCN(C)CC4)[C@@]3(C)CC[C@@H]2[C@@]1(C)CCC(=O)N1CCN(C)CC1 (stereo not given in full) | 4.3 |
| C#CCNC(=O)CC[C@@H](C)[C@H]1CC[C@H]2[C@@H]3CCC(C(=C)C)[C@](C)(CCC(=O)NCC#C)[C@H]3CC[C@]12C (stereo not given in full) | 20 |
| C=C(C)C1CC[C@H]2[C@@H]3CC[C@H]([C@H](C)CCC(=O)N4CCNCC4)[C@@]3(C)CC[C@@H]2[C@@]1(C)CCC(=O)N1CCNCC1 (stereo not given in full) | 7.3 |
| C=C(C)C1CC[C@H]2[C@@H]3CC[C@H]([C@H](C)CCC(=O)N(CC)CC)[C@@]3(C)CC[C@@H]2[C@@]1(C)CCC(=O)N(CC)CC (stereo not given in full) | 4 |

# compound C=C(C)C1CC[C@H]2[C@@H]3CC[C@H]([C@H](C)CCC(=O)N4CCN(C(C)C)CC4)[C@@]3(C)CC[C@@H]2[C@@]1(C)CCC(=O)N1CCN(C(C)C)CC1 (stereo not given in full) ; its Ratio IC50 = 4

====

- protocol.summary: Antiproliferative activity against human HT-29 cells after 48 hrs by SRB assay
- Type: functional, cell-based
- measurement.conditions: HT-29, 48 h
pIC50: −log10 of the molar value.
property.name: pIC50

Reference set (5 entries):
| compound | property.name | readout.value |
| --- | --- | --- |
| C=C(C)C1CC[C@H]2[C@@H]3CC[C@H]([C@H](C)CCC(=O)O)[C@@]3(C)CC[C@@H]2[C@@]1(C)CCC(=O)N1CCN(C)CC1 (stereo partly specified) | pIC50 | < 4.10 |
| C=C(C)C1CC[C@H]2[C@@H]3CC[C@H]([C@H](C)CCC(N)=O)[C@@]3(C)CC[C@@H]2[C@@]1(C)CCC(N)=O (stereo partly specified) | pIC50 | 4.43 |
| C=C(C)C1CC[C@H]2[C@@H]3CC[C@H]([C@H](C)CCC(=O)N4CCN(c5ccccc5)CC4)[C@@]3(C)CC[C@@H]2[C@@]1(C)CCC(=O)N1CCN(c2ccccc2)CC1 (stereo partly specified) | pIC50 | < 4.10 |
| C=C(C)C1CC[C@H]2[C@@H]3CC[C@H]([C@H](C)CCC(=O)O)[C@@]3(C)CC[C@@H]2[C@@]1(C)CCC(=O)O (stereo partly specified) | pIC50 | < 4.10 |
| C[C@H](CCC(=O)O)[C@H]1CC[C@H]2[C@@H]3C[C@H](O)[C@@H]4C[C@H](O)CC[C@]4(C)[C@H]3CC[C@]12C | pIC50 | < 4.10 |

pIC50 in this record for `C[C@H](CCC(=O)O)[C@H]1CC[C@H]2[C@@H]3[C@H](O)C[C@@H]4C[C@H](O)CC[C@]4(C)[C@H]3CC[C@]12C` : < 4.10

# pIC50 of CC(C)C1CC[C@H]2[C@@H]3CC[C@H]([C@H](C)CCC(=O)N4CCN(C)CC4)[C@@]3(C)CC[C@@H]2[C@@]1(C)CCC(=O)N1CCN(C)CC1 (stereo partly specified) = 4.86

GET /value?item= C=C(C)C1CC[C@H]2[C@@H]3CC[C@H]([C@H](C)CCCN4CCN(C)CC4)[C@@]3(C)CC[C@@H]2[C@@]1(C)CCCN1CCN(C)CC1 (stereo partly specified) &field=pIC50 returns < 4.10

// C=C(C)C1CC[C@H]2[C@@H]3CC[C@H]([C@H](C)CCC(=O)n4cccn4)[C@@]3(C)CC[C@@H]2[C@@]1(C)CCC(=O)n1cccn1 (stereo partly specified) : pIC50 value = < 4.10

In plain terms, C=C(C)C1CC[C@H]2[C@@H]3CC[C@H]([C@H](C)CCC(=O)N4CCOCC4)[C@@]3(C)CC[C@@H]2[C@@]1(C)CCC(=O)N1CCOCC1 (stereo partly specified) has a documented pIC50 of 4.78

Query C=C(C)C1CC[C@H]2[C@@H]3CC[C@H]([C@H](C)CCC(=O)Nc4ccc(F)cc4)[C@@]3(C)CC[C@@H]2[C@@]1(C)CCC(=O)Nc1ccc(F)cc1 (stereo partly specified) yields pIC50 of < 4.10
